- Study System: IDH1 R132H (Homo sapiens, UniProt O75874, R132H)
- Sequence (O75874 whole entry R132H): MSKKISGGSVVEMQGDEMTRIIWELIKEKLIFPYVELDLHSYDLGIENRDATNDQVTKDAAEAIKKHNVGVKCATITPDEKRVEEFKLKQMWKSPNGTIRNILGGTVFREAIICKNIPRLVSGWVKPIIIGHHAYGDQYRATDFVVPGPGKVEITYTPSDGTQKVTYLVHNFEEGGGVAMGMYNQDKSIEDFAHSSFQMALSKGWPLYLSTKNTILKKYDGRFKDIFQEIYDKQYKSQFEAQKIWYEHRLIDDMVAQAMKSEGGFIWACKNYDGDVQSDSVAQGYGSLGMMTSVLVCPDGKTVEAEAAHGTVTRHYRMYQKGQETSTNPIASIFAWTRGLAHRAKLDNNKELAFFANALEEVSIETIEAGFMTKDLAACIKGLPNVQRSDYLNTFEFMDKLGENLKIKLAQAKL
- Test: IDH1 R132H enzymatic assay (NADPH depletion coupled to diaphorase/resazurin)
- Type: biochemical
- Measurement Conditions: IDH1 R132H enzymatic inhibition, IC50 class
- Method: Assays were conducted in a 1536-well black solid-bottom plate with a final assay volume of 9 μL. Specifically, for IDH1 R132H, 3 μL of enzyme (4 mM β-ME, 0.0005 mg/mL IDH1 R132H, 150 mM NaCl, 20 mM Tris pH 7.5, 10 mM MgCl2, 0.05% BSA) were added to the plate, followed by the addition of 23 nL of test compound in DMSO. […]
pIC50: −log10 of the molar value.
Observable: pIC50

Quick check: pIC50 of CCc1cccc(CC)c1-n1c(CC(C)C)c(C(=O)N2CCNCC2)cc(-c2nc(-c3ccc(Cl)cc3)c(Cl)s2)c1=O ? 6.00 to 6.52

Note, next up: CCc1cccc(CC)c1-n1c(C)c(C(=O)N2CCOCC2)cc(-c2nc(-c3ccc(Cl)cc3)cs2)c1=O 5.30 to 6.00

Note, next up: CCc1cccc(CC)c1N1C(=O)C(c2nc(-c3ccc(Cl)cc3)cs2)CC(CN2CCNCC2)=C1CC(C)C (stereo not shown) 5.30 to 6.00

Note, next up: CCc1cccc(CC)c1-n1c2c(cc(-c3nc(C4=CCNCC4)c(C)s3)c1=O)C(=O)CC(C)(C)C2 < 4.70

Note, next up: COC(=O)c1ccsc1-n1c2c(cc(-c3nc(-c4ccc(Cl)cc4)cs3)c1=O)C(=O)CC(C)(C)C2 6.00 to 6.52

Note, next up: CCc1cccc(CC)c1-n1c2c(cc(-c3nc(-c4cccc(O)c4)cs3)c1=O)C(=O)CC(C)(C)C2 5.30 to 6.00

Note, next up: CCc1ccc(F)cc1-n1c(C=C(C)C)c(C(=O)N2CCNCC2)cc(-c2nc(-c3ccc(C(F)F)cc3)cs2)c1=O > 6.52

Note, next up: CCc1cccc(CC)c1-n1c(CC(C)C)c(C(=O)N2CCNC(C(=O)O)C2)cc(-c2nc(-c3ccc(Cl)cc3)cs2)c1=O (stereo not shown) > 6.52

Note, next up: COc1ccc(OC)c(-n2c(=O)c(-c3nc(-c4ccc(Cl)cc4)cs3)cc3c(OC)cncc32)c1 < 4.70

Note, next up: CCc1ccc(N(C)C)cc1-n1c(C=C(C)C)c(C(=O)N2CCNCC2)cc(-c2nc(-c3ccc(Cl)cc3)cs2)c1=O > 6.52
